molecular target: T1, human VEGF-A (human, UniProt P15692-4 27-191, limits assumed); test: SPR (Biacore), antibody captured by anti-human Fc, VEGF-A injected
T1 construct: also called huVEGF-A
T1 sequence (P15692 other isoform, or with tags, fused parts or gaps limits assumed): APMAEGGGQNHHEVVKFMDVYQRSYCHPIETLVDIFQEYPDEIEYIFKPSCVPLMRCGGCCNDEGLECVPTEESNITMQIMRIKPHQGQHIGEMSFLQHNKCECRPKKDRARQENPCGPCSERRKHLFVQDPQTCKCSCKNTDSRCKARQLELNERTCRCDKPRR
METRIC NAME: Kd (pM)
Field format: number, assumed pM, no unit text.

Below: 2 binders and their reported Kd.
binder="hBEW-9E10.1 (antibody, V domains shown, Humanized IgG made from pHybE vectors in HEK293 cells; also called AB642 (9E10.1)) VH: EIQLVQSGSELKKPGASVKVSCKASGYTFTNYGMYWVKQAPGQGLEYMGWIDTETGRPTYADDFKGRFVFSLDTSVSTAYLQISSLKAEDTAVYFCARWSGDTTGIRGPWFAYWGQGTLVTVSS VL: DIRMTQSPSSLSASVGDRVTIECLASEDIYSDLAWYQQKPGKSPKLLIYNANGLQNGVPSRFSGSGSGTDYSLTISSLQPEDVATYFCQQYNYFPGTFGQGTKLEIK" metric_name=Kd quantitative_result=2.1
binder="hBDB-4G8.14 (antibody, V domains shown, Humanized IgG made from pHybE vectors in HEK293 cells) VH: EIQLVQSGGGVVQPGGSLRLSCAASGYTFTNYGMYWVKQAPGKGLEYMGWINTETGKPTYADDFKGRFTFSLDTSKSTAYLQLNSLRAEDTAVYFCARTNYYYRSYIFYFDYWGQGTLVTVSS VL: DTVLTQSPSTLSASPGERATISCRASESVSTHMHWYQQKPGQAPKLLIYGASNLESGVPSRFSGSRSGTDFTLTISSLQPEDFAVYFCQQSWNDPFTFGQGTKVEIK" metric_name=Kd quantitative_result=3.7

Turning now to a further record.
Lookup: Which measured Kd value corresponds to hBEW-9E10.3 (antibody, V domains shown, Humanized IgG made from pHybE vectors in HEK293 cells) VH: EVQLVQSGAEVKKPGSSVKVSCKASGYTFTNYGMYWVRQAPGQGLEWMGWIDTETGRPTYADDFKGRFTFTADKSTSTAYMELSSLRSEDTAVYYCARWSGDTTGIRGPWFAYWGQGTLVTVSS VL: DIRMTQSPSSLSASVGDRVTIECLASEDIYSDLAWYQQKPGKSPKLLIYNANGLQNGVPSRFSGSGSGTDYSLTISSLQPEDVATYFCQQYNYFPGTFGQGTKLEIK ?
Found: 3.2
